Each record here notes measured UV λmax.
# ASSAY_PROCEDURE: UV absorption properties (λmax, molar extinction coefficient ε, efficiency E 1%, 1 cm)
# Type: physicochemical
Lab note: write values as number then unit, every time.

See these solved cases before continuing.
# SMILES_REPR, UV λmax
data = [
    ("COc1ccc(/C=C/C(=O)C2=CN(CC(C)C)CCC2(C)C)cc1", "364 nm"),
    ("CC1(C)CCN(C(C)(C)C)C=C1C(=O)c1ccc(C(=O)C2=CN(C(C)(C)C)CCC2(C)C)cc1", "317 nm"),
    ("C=CC(=O)C1=CN(CC(C)C)CCC1(C)C", "331 nm"),
    ("CC(C)CN1C=C(C(=O)/C=C/c2ccc(C(F)(F)F)cc2)C(C)(C)CC1", "369 nm"),
]

Continue with the next molecule.
State, in one line, measured UV λmax of `CC1(C)CCN(C(C)(C)C)C=C1C(=O)COc1ccccc1`
313 nm
